# credit: the supplement of paper PMC6555819

System: PXR:RXRa (NR concentration 270 nM, RXRa partner concentration 90 nM)
ASSAY NAME: PBM binding z-score (relative to random genomic background probes); higher = stronger binding; sequences stand for … in GC…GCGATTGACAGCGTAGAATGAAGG
Hi, to clarify the labels: 1 (yes) covers PBM binding z-score from 2 upward, 0 (no) covers anything below 2.

Query block: Quick check: does "GATACAGGGTCAAAGCCAGAGTACGCGTATTGAT" have PBM binding z-score greater than or equal to 2?
Result block: 1 (yes)

Query block: Quick check: does "CCTACTGGGCCATTCATAGGTCATTGATCATATG" have PBM binding z-score greater than or equal to 2?
Result block: 0 (no)

Query block: Quick check: does "AATACAGGGTCATCGTCGGCCAGAGTACGCACAG" have PBM binding z-score greater than or equal to 2?
Result block: 1 (yes)

Query block: Quick check: does "AGAACGAGGGCAACGAGTTGATAGCACGGGTGGC" have PBM binding z-score greater than or equal to 2?
Result block: 0 (no)

Query block: Quick check: does "ATATGTAGGTTAATGGTCATTCAGGTTGGTTCGC" have PBM binding z-score greater than or equal to 2?
Result block: 0 (no)

Query block: Quick check: does "AGAACTAGGGCAATGAGTTGATAGCACGGGTGGC" have PBM binding z-score greater than or equal to 2?
Result block: 0 (no)

Query block: Quick check: does "GCTCGGAGGACAAGGTCAGAGCATTGTCCGTAGA" have PBM binding z-score greater than or equal to 2?
Result block: 0 (no)

Query block: Quick check: does "ATCTCTAGGTAAAAGTTCAGTGAGTCCCGAGGAT" have PBM binding z-score greater than or equal to 2?
Result block: 1 (yes)

Query block: Quick check: does "ATCGAAAGGTCGAGGTGAGTTTAGAGAAAGGGAA" have PBM binding z-score greater than or equal to 2?
Result block: 1 (yes)

Query block: Quick check: does "TCTCGGAGGACACGAATGTCAGAGCTTTCCAGAG" have PBM binding z-score greater than or equal to 2?
Result block: 0 (no)

Query block: Quick check: does "ACTAGCAGGCCAAGTTTGGGTCACTCACACAAAG" have PBM binding z-score greater than or equal to 2?
Result block: 0 (no)

====

Tested on: RARb homodimer (NR concentration 270 nM)
ASSAY NAME: PBM binding z-score (relative to random genomic background probes); higher = stronger binding; sequences stand for … in GC…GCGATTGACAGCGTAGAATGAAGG
Measured PBM binding z-score, listed per entry.

[[record]]
seq = "CGAACTGGGTCATTGACAGGACAGTGAATAGTAA"
endpoint_label = "PBM binding z-score"
readout_value = 2.17

[[record]]
seq = "ATCTCTAGGAAACAAGTTCAGTGAAAGAGAGGAC"
endpoint_label = "PBM binding z-score"
readout_value = 1.32

[[record]]
seq = "CCTCGGAGGACAGAAGATCAGAGCTGTCCGCTTT"
endpoint_label = "PBM binding z-score"
readout_value = -0.501

[[record]]
seq = "CAGCCTAGGTCAGGGCCAATATAGGAGGAACGTT"
endpoint_label = "PBM binding z-score"
readout_value = 2.42

[[record]]
seq = "CGAACTAGGTCATTGGCAGGACAGTGAATAGTAA"
endpoint_label = "PBM binding z-score"
readout_value = 2.75


Query block: Note PBM binding z-score for the sequence shown: "ATCTCTAGGTCAAGATAGTTCAGTGAATGCAAAT"
Result block: 3.89

====

System: RARa homodimer (NR concentration 270 nM)
ASSAY NAME: PBM binding z-score (relative to random genomic background probes); higher = stronger binding; sequences stand for … in GC…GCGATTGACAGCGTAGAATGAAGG
Measured PBM binding z-score, listed per entry.

Observe how each entry below is paired with its result.
[[record]]
seq = "ATATGTAGGTTACATCCGGGTCGTTCAGGCTATG"
readout_value = 0.787

[[record]]
seq = "TTACCAAGGTGAGCTGAGGTGGTTGATCCAACTC"
readout_value = -0.848

[[record]]
seq = "TCGAGTAGCTTACCAATGGGGCATTCAGCTTTCT"
readout_value = -1.4


Query block: Note PBM binding z-score for the sequence shown: "CATACTAGGTCAAGGTCAAAGTCGGTTTGTGCCA"
Result block: 2.9

Query block: Note PBM binding z-score for the sequence shown: "TGAATGAGGTTAAAAATCAGGGAACGTGGCGTCG"
Result block: -0.472

Query block: Note PBM binding z-score for the sequence shown: "GGAACGAGGGCAAAATTGATAGCATCTGTCGACG"
Result block: -0.196

====

Tested on: RARg homodimer (NR concentration 270 nM)
ASSAY NAME: PBM binding z-score (relative to random genomic background probes); higher = stronger binding; sequences stand for … in GC…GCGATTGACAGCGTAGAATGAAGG
ENDPOINT LABEL: PBM binding z-score
Keep it simple and answer with nothing but the number.

[[record]]
seq = "TGAATGACGTTATAAGATCAGGGAACGTTGCAAA"
endpoint_label = "PBM binding z-score"
readout_value = 0.292

[[record]]
seq = "ATCTCTAGGTAAAAGTTCAGTGTATCCCGAGGAT"
endpoint_label = "PBM binding z-score"
readout_value = 2.05

[[record]]
seq = "ACTAGCAGACCAAGGGTCACTCAAGATTAGTCCG"
endpoint_label = "PBM binding z-score"
readout_value = 3.3

[[record]]
seq = "TCATAGAGGTAAACAGGTGAAAGTCCGTAAGTTA"
endpoint_label = "PBM binding z-score"
readout_value = 0.356

[[record]]
seq = "GGAACGAGAGCATTCGAGTTGATAGCATGGCGAT"
endpoint_label = "PBM binding z-score"
readout_value = -0.276

[[record]]
seq = "TCCAGTAGGTTAGGGGCATTCAGAATGGCGTCGA"
endpoint_label = "PBM binding z-score"
readout_value = 0.313


Query block: Note PBM binding z-score for the sequence shown: "ATTTACGGGTCAACGAGGTTATAGCACGCGTATA"
Result block: 5.62

Query block: Note PBM binding z-score for the sequence shown: "CAAACTAGGTCAGAACAGGACAGTGAAGGATGAT"
Result block: 3.33

Query block: Note PBM binding z-score for the sequence shown: "CCGACTGGGGCAATGGTTACCATACTCAGTACGA"
Result block: 0.28

====

Measured PBM binding z-score, listed per entry.
Tested on: VDR:RXRa (NR concentration 270 nM, RXRa partner concentration 90 nM)
ASSAY NAME: PBM binding z-score (relative to random genomic background probes); higher = stronger binding; sequences stand for … in GC…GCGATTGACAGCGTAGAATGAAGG
Keep it simple and answer with nothing but the number.

Observe how each entry below is paired with its result.
[[record]]
seq = "GCTATTAGTTGACAGGGCAACCGAATGATTCTCG"
readout_value = -0.414

[[record]]
seq = "CCTACTGGGCCAAAAAGGTCATTGTTGCCGATAA"
readout_value = 4.46

[[record]]
seq = "GCTAGTTGGTCAGTAAAAGCTCACACACCGGTCG"
readout_value = -0.481

[[record]]
seq = "CCGACTGGGTCATAAGGTTACCATAAGCCAGCCC"
readout_value = 2.81

[[record]]
seq = "CGAACTAGGTCAGAACGGGACAGTGAAGGATGAT"
readout_value = 0.281

[[record]]
seq = "CCCGAAAGGTCGGTTGAGGTGAGTATACGGATAA"
readout_value = 2.57

[[record]]
seq = "TCGAGTAGGTTTGTCGGGGCATTCAGCCAACATA"
readout_value = 0.467

[[record]]
seq = "CCAGCCAGGTGAAAGGTAACTCAGTCTGGTACGC"
readout_value = 0.288

[[record]]
seq = "CCTGCTAGGTCATGGTCAGTTAATCTACAGTATG"
readout_value = 2.28

[[record]]
seq = "TCTGCTAGGTCAATGATGGTCAGCTAATCTGCTA"
readout_value = 1.32


Query block: Note PBM binding z-score for the sequence shown: "AGAATGAGGTTAAGATCCGGGAAACAGAATACAT"
Result block: 1.05

Query block: Note PBM binding z-score for the sequence shown: "GCGACTGGGGCATCAGCAGGTTAGCATAACTTAA"
Result block: -0.526

Query block: Note PBM binding z-score for the sequence shown: "GATACAGGGTCAAGGCCACAGTACGCGTATTGAT"
Result block: 4.2

Query block: Note PBM binding z-score for the sequence shown: "TCCGACAGGTGAAGGTAACTCAGGTACGCAGTCG"
Result block: 0.225

Query block: Note PBM binding z-score for the sequence shown: "AGAACGAGGGCAATGAGTGGATAGCACGGGTGGC"
Result block: 1.49

Query block: Note PBM binding z-score for the sequence shown: "CGCGAAAGGTCGTGCTCAGGTGAGTATACCAAAC"
Result block: 3.57

Query block: Note PBM binding z-score for the sequence shown: "CCTACCAGGCCAGGGTCACTCAAGCATTTCGCTT"
Result block: 2.7

Query block: Note PBM binding z-score for the sequence shown: "TCTTGTAGATCAGCAGATTAAGAAAGCTGGCCAA"
Result block: 0.172

Query block: Note PBM binding z-score for the sequence shown: "ATCGAAAGGTCGAAGTTGAGTATACCCACCCGAA"
Result block: 3.08

Query block: Note PBM binding z-score for the sequence shown: "CGAACGAGGGCATGAGTGGATAGCAAATGCCGAT"
Result block: 0.295

Query block: Note PBM binding z-score for the sequence shown: "GATAGCAGGCCATTTGGGTCACTCAATGACGGGC"
Result block: 1.07
